Provide the reported growth percent of each item.
System: SF-295 (CNS Cancer)
measurement description: NCI60 screen (SRB)
Type: cell-based, human
measurement context: one dose 10 µM, 48 h
One number for each entry, in %.

Worked set:
Q: Record request: growth percent value, item COc1ccc(/C=C/C(c2cc(OC)c(OC)c(OC)c2)n2cncn2)cc1O (centres unmarked) [Compound 22b]
Result: 1.43

Q: Record request: growth percent value, item COc1ccc(/C=C/C(c2cc(OC)c(OC)c(OC)c2)n2cncn2)cc1 (centres unmarked) [Compound 22a]
Result: 22.52

Q: Record request: growth percent value, item COc1ccc(/C=C/C(c2cc(OC)c(OC)c(OC)c2)n2ccnc2)cc1O (centres unmarked) [Compound 23b]
Result: 16.59

Q: Record request: growth percent value, item COc1ccc(C2CC(n3ccnc3)c3cc(OC)c(OC)c(OC)c32)cc1O (centres unmarked) [Compound 27a]
Result: 57.51

***
Q: Record request: growth percent value, item COc1cc(/C=C/C(/C=C/c2cc(OC)c(OC)c(OC)c2)n2ccnc2)cc(OC)c1OC [Compound 30]
Result: 95.73

###

System: MDA-MB-468 (Breast Cancer)
measurement description: NCI60 screen (SRB)
Format: cell-based, human
measurement context: one dose 10 µM, 48 h
Lab note: anything with growth percent at or over 40% counts as t; the rest go in f.

Q: Given the entry COc1ccc(/C=C/C(c2cc(OC)c(OC)c(OC)c2)n2cncn2)cc1O (centres unmarked) [Compound 22b] , answer whether its growth percent meets or surpasses 40%.
Result: f

Q: Given the entry COc1cc(/C=C/C(/C=C/c2cc(OC)c(OC)c(OC)c2)n2ccnc2)cc(OC)c1OC [Compound 30] , answer whether its growth percent meets or surpasses 40%.
Result: t

Q: Given the entry COc1ccc(C2CC(n3ccnc3)c3cc(OC)c(OC)c(OC)c32)cc1O (centres unmarked) [Compound 27a] , answer whether its growth percent meets or surpasses 40%.
Result: t

###

Test system: NCI-H23 (Non-Small Cell Lung Cancer)
measurement description: NCI60 screen (SRB)
Assay type: cell-based, human
measurement context: one dose 10 µM, 48 h
assay metric: growth percent
Write the numeric value and append its unit.

Worked set:
Q: Record request: growth percent value, item COc1ccc(/C=C/C(c2cc(OC)c(OC)c(OC)c2)n2cncn2)cc1O (centres unmarked) [Compound 22b]
Result: 41.50%

Q: Record request: growth percent value, item COc1ccc(C2CC(n3ccnc3)c3cc(OC)c(OC)c(OC)c32)cc1O (centres unmarked) [Compound 27a]
Result: 91.50%

Q: Record request: growth percent value, item COc1ccc(/C=C/C(c2cc(OC)c(OC)c(OC)c2)n2ccnc2)cc1O (centres unmarked) [Compound 23b]
Result: 55.69%

Q: Record request: growth percent value, item `COc1cc(/C=C/C(/C=C/c2cc(OC)c(OC)c(OC)c2)n2ccnc2)cc(OC)c1OC`
Result: 81.16%

Proceeding to the next compound to report its growth percent.
Q: Record request: growth percent value, item COc1ccc(/C=C/C(c2cc(OC)c(OC)c(OC)c2)n2cncn2)cc1 (centres unmarked) [Compound 22a]
Result: 67.01%

###

measurement description: Cytotoxicity in MCF-10A cells (alamarBlue)
Type: cell-based, human
measurement context: human, MCF-10A non-tumorigenic mammary epithelial cells, 1 μM, 24 h, read-out: cell viability
assay metric: viability at 24 h, 1 µM (%)
Answers are plain numbers, in %.

Q: Record request: viability at 24 h, 1 µM value, item COc1ccc(/C=C/C(c2cc(OC)c(OC)c(OC)c2)n2cncn2)cc1O (centres unmarked) [Compound 22b]
Result: 100

Proceeding to the next molecule to report its viability at 24 h, 1 µM.
Q: Record request: viability at 24 h, 1 µM value, item COc1ccc(/C=C/C(c2cc(OC)c(OC)c(OC)c2)n2cncn2)cc1 (centres unmarked) [Compound 22a]
Result: 100
